z-score values by entry
Test protocol: MELAS cybrid and Rieske KO viability enhancers – cell-based, MELAS cybrids, Rieske KO mouse fibroblasts, CellTiter-Glo, primary screen (AID 1508586);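 also: z relative to plate mean and SD of compound and empty wells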
Condition parameters: MELAS cybrid survival, low glucose, CellTiter-Glo 48 h; stronger effect = higher value
The response must contain the number and no unit.

COCCCOc1cc(CC(CC(N)C(O)CC(C(=O)NCC(C)(C)C(N)=O)C(C)C)C(C)C)ccc1OC (stereo not given)    0.18
CCc1c(Cl)c(O)c(Cl)c(O)c1C(=O)OC1C(C)OC(OCC2=CC=CCC(O)C(C)=CC(CC)C(O[C@@H]3OC(C)(C)C(OC(=O)C(C)C)C(O)C3O)C(C)=CC(C)=CC[C@H](C(C)O)OC2=O)C(OC)C1O (stereo not given in full)    -0.301
CNC(=O)C(Cc1ccccc1)NC(=O)C(CC(C)C)C(CSc1cccs1)C(=O)NO (stereo not given)    0.43
C#C[C@@]1(O)CC[C@H]2[C@@H]3CCC4=CC(=O)CC[C@@H]4[C@@H]3CC[C@@]21CC    -0.214

# input Using the record for Cn1ccnc1CN1C[C@@H](CN2CCOCC2)C[C@@H](C(=O)N2CCCC2)C1 , report its z-score.
# output 0.188

# input Using the record for CC1OC(OCC2OC(Oc3c(-c4ccc(OCCO)c(OCCO)c4)oc4cc(OCCO)cc(O)c4c3=O)C(O)C(O)C2O)C(O)C(O)C1O (stereo not given) , report its z-score.
# output -0.513

* * *

viability values by entry
Test protocol: drug combination growth inhibition, ovarian cancer – cell-based, oncology-focused library, rucaparib conditional, profiling panel (AID 1508598)
Condition parameters: patient-derived ovarian cancer cells, CellTiter-Glo viability, 144 h; at 0.000305 µM; OCI-P5x cells; with rucaparib 20 µM; stronger effect = lower value; 100% = cells with rucaparib alone
Where a SMILES comes first, the peptide text is derived from it. The star is where a group is joined. Cbz = O=C(OCc1ccccc1)*; CH2F = FC*
// units = %; emit number, no label

COC(=O)C[C@H](NC(=O)[C@H](C)NC(=O)[C@@H](NC(=O)OCc1ccccc1)C(C)C)C(=O)CF (Cbz-Val-Ala-Asp(OMe)-CH2F)    101
CO[C@H]1C[C@H]2CC[C@@H](C)[C@@](O)(O2)C(=O)C(=O)N2CCCC[C@H]2C(=O)O[C@H]([C@H](C)C[C@@H]2CC[C@H](OP(C)(C)=O)[C@H](OC)C2)CC(=O)[C@H](C)/C=C(\C)[C@@H](O)[C@@H](OC)C(=O)[C@H](C)C[C@H](C)/C=C/C=C/C=C/1C    79.2
O=C1[C@H](CC[C@H](O)c2ccc(F)cc2)[C@H](c2ccc(O)cc2)N1c1ccc(F)cc1    106
COc1cc([C@H]2c3cc4c(cc3[C@@H](O[C@@H]3O[C@@H]5CO[C@@H](C)O[C@H]5[C@H](O)[C@@H]3O)[C@H]3COC(=O)[C@H]23)OCO4)cc(OC)c1O    99.3
c1ccc(Cn2c(-c3ccc(OC[C@H](C4CCNCC4)n4c(-c5ccccc5)nc5ccccc54)cc3)nc3ccccc32)cc1    90.3

# input Using the record for Cc1[nH]c(C=C2C(=O)Nc3ccc(S(=O)(=O)Cc4c(Cl)cccc4Cl)cc32)c(C)c1C(=O)N1CCC[C@@H]1CN1CCCC1 , report its viability.
# output 74

# input Using the record for Nc1ncn([C@@H]2O[C@H](CO)[C@@H](O)[C@@H]2O)c(=O)n1 , report its viability.
# output 103

* * *

inhibition values by entry
Test protocol: BT084 cell growth, single and combined drugs, ICGC_MB145, cisplatin and BGB IC40 combos (AID 1671461);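 also: cells exposed to drugs for 96 hours; 0% = vehicle DMSO and 100% = high DMSO full killing control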
Condition parameters: BT084 medulloblastoma cells, drug combinations, single agent, at 5 µM, stronger effect = higher value

Cc1cc(C#N)cc(C)c1Oc1nc(Nc2ccc(C#N)cc2)nc(N)c1Br    -20.3%

# input Using the record for Cc1cc(C)cc(C(=O)NOCCCCCC(=O)NO)c1 , report its inhibition.
# output 105%

# input Using the record for O=c1[nH]c(=S)[nH]c2nc(-c3ccccc3)c(-c3ccccc3)nc12 , report its inhibition.
# output 0.55%

# input Using the record for Nc1ncn(C2OC(CO)C(O)C2O)c(=O)n1 (stereo not given) , report its inhibition.
# output 8.5%

* * *

Test protocol: BT084 cell growth, single and combined drugs, ICGC_MB145, cisplatin and BGB IC40 combos (AID 1671461);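 also: cells exposed to drugs for 96 hours; 0% = vehicle DMSO and 100% = high DMSO full killing control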
Condition parameters: BT084 medulloblastoma cells, drug combinations, at 0.5 µM
Activity calls are given as the source filed them. No stated cut-off is given here; in the data, active means inhibition above about 80%; inactive means the rest.
Choose the fitting class; nothing outside active, inactive is accepted.

Worked cases, answers included:
O=C(CCCCCCC(=O)NO)NO    inactive
CC(C=CC(=O)NO)=CC(C)C(=O)c1ccc(N(C)C)cc1 (stereo unspecified)    active
CC1CNC(=O)NC1=O (stereo unspecified)    inactive
CN(C)C(=S)NN=C(c1ccccn1)c1ccccn1    inactive
CCC1(O)C(=O)OCc2c1cc1n(c2=O)Cc2cc3cc(O)ccc3nc2-1 (stereo unspecified)    inactive
COc1cccc2c1C(=O)c1c(O)c3c(c(O)c1C2=O)CC(O)(C(=O)CO)CC3OC1CC(N)C(OC2CCCCO2)C(C)O1 (stereo unspecified)    inactive
Nc1ccn(C2CCC(CO)O2)c(=O)n1 (stereo unspecified)    inactive
CC(C)(C#N)c1ccc(N2C(=O)OCc3cnc4ccc(-c5cnc6ccccc6c5)cc4c32)cc1    inactive

# input Would you mind telling me which call this test gave CC(Oc1cc(-c2cnn(C3CCNCC3)c2)cnc1N)c1c(Cl)ccc(F)c1Cl (stereo unspecified) ?
# output inactive

# input Would you mind telling me which call this test gave COc1nc(N)nc2c1ncn2[C@@H]1O[C@H](CO)[C@@H](O)[C@H]1O ?
# output inactive

# input Would you mind telling me which call this test gave CCC(Sc1nnc2c3ccccc3n(CC)c2n1)C(=O)Nc1ccccc1OC (stereo unspecified) ?
# output inactive

* * *

Test protocol: growth inhibition, single agents and combos, ICB984, cell-based, cisplatin or BGB combos, synergistic combos for chromothripsis tumors (AID 1671451);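 also: cells exposed for 96 hours before readout; 0% = vehicle DMSO and 100% = killing by high DMSO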
Condition parameters: ICB984 medulloblastoma cells, drug combinations, cisplatin combo, at 0.05 µM, stronger effect = higher value
Non-standard residues stand in square brackets, D forms with d. Residues, ends and D or L forms follow the SMILES beside them. Dolaproine = CO[C@@H]([C@@H]1CCCN1)[C@@H](C)C(=O)O; Dil = CC[C@H](C)[C@H](NC)[C@@H](CC(=O)O)OC; NMeV = CN[C@H](C(=O)O)C(C)C
Respond with yes for inhibition values of -20% and above, no for values below.

Worked cases, answers included:
O=C(O)c1cc2cccc([N+](=O)[O-])c2[nH]1    no
CC[C@H](C)[C@@H]([C@@H](CC(=O)N1CCC[C@H]1[C@H](OC)[C@@H](C)C(=O)N[C@@H](Cc1ccccc1)C(=O)O)OC)N(C)C(=O)[C@@H](NC(=O)[C@@H](NC)C(C)C)C(C)C (H-[NMeV]V[Dil][Dolaproine]F-OH)    yes
N#Cc1ccc(OC2CCC(NC(=O)CCSc3nc4ccccc4c(=O)[nH]3)CC2)cc1 (stereo not drawn)    yes
NC(=O)c1ncn(C2OC(CO)C(O)C2O)c1O (stereo not drawn)    no
CC(C)(C#N)c1ccc(N2C(=O)OCc3cnc4ccc(-c5cnc6ccccc6c5)cc4c32)cc1    yes

# input Is inhibition for O=c1cc(-c2ccc(O)cc2)[nH]c(=S)[nH]1 at or above -20%?
# output no

# input Is inhibition for C=C(C)C1CCC2(C(=O)O)CCC3(C)C(CCC4C5(C)CCC(O)C(C)(C)C5CCC43C)C12 (stereo not drawn) at or above -20%?
# output yes

* * *

inhibition values by entry
Test protocol: growth inhibition, single agent and combos, cell-based, chromothripsis tumors, cisplatin or BGB combos (AID 1671450);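 also: cells exposed to compound for four days; 0% = vehicle DMSO and 100% = cell killing by high DMSO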
Condition parameters: HDN33 neuroblastoma cells, measured here: with BGB IC20 combination, at 0.5 µM, stronger effect = higher value
Put down the number, then write its unit next to it.

CCC1(O)C(=O)OCc2c1cc1n(c2=O)Cc2cc3cc(O)ccc3nc2-1 (stereo not drawn)    83.6%
COc1nc(N)nc2c1ncn2[C@@H]1O[C@H](CO)[C@@H](O)[C@H]1O    -0.293%
NC(=O)c1ncn(C2OC(CO)C(O)C2O)c1O (stereo not drawn)    16.7%
C=C(C)C1CCC2(C(=O)O)CCC3(C)C(CCC4C5(C)CCC(O)C(C)(C)C5CCC43C)C12 (stereo not drawn)    -1.87%

# input Using the record for NC(=O)c1cccc2cn(-c3ccc(C4CCCNC4)cc3)nc12 (stereo not drawn) , report its inhibition.
# output -14.6%

# input Using the record for Cc1cn(C2C=CC(CO)O2)c(=O)[nH]c1=O (stereo not drawn) , report its inhibition.
# output -50.9%

* * *

Test protocol: viability loss with induced miR-34 in A549 – imaging, A549 dox-inducible miR-34, nuclei and caspase counts, primary screen (AID 1347080)
Condition parameters: A549 miR-34 inducible, Hoechst nuclei count, 48 h; cell number ratio, induced over uninduced
The source made the active and inactive calls.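 How the source made its calls: active means compounds whose cell count with miR-34 switched on is under 0.7 times the count with it off; inactive means the rest.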
Choose the fitting class; nothing outside 1 (yes) for active, 0 (no) for inactive is accepted.

N#CC(=C(N)Sc1ccc(N)cc1)c1ccccc1C(F)(F)F    0 (no)
O=NO    0 (no)
CC(C)n1cc(-c2cc(C(=O)N(C)Cc3ccncc3)c3cc(F)ccc3n2)cn1    0 (no)
Cc1cc(C(N)=O)ccc1-n1c(CCC(=O)O)ccc1-c1ccc(-n2ccnc2)cc1    0 (no)
CC(C)C1=NOC(c2nc(-c3cccc4ccccc34)no2)C1 (configuration not stated)    0 (no)

# input Would you mind telling me which call this test gave NCc1ccc(-c2cccs2)cc1 ?
# output 0 (no)

# input Would you mind telling me which call this test gave C/C(=C(/CCO)SSCC1CCCO1)N(C=O)Cc1cnc(C)nc1N (configuration not stated) ?
# output 0 (no)

# input Would you mind telling me which call this test gave CCN(CC)CCN(Cc1ccc(-c2ccc(C(F)(F)F)cc2)cc1)C(=O)Cn1c(SCc2ccc(F)cc2)nc(=O)c2c1CCC2 ?
# output 1 (yes)
